The entries below are paired with their reported Inhibition.
test system: Plasmodium falciparum; assay: GSK_TCMDC: Inhibition of Plasmodium falciparum Dd2 in whole red blood cells, using parasite LDH activity as an index of growth. Test compounds present at 2uM; format: functional
Respond with a number, then the unit of measure.

Some compounds with recorded Inhibition:
Qu. Item under review: `CCCN1CCN(CCCNc2c3ccccc3nc3ccccc23)CC1.Cl` . Reported Inhibition?
Ans. 0%

Qu. Same question for `CCN(CC)CCOc1cc2c(cc1Br)-c1cc(Br)c(OCCN(CC)CC)cc1C2=NO.Cl` please.
Ans. 98%

Qu. Same question for Cc1ccccc1C1CCN(C2CCC(NC(=O)/C=C/c3cccc(Cl)c3F)CC2)CC1 (stereo not given) please.
Ans. 37%

Qu. Same question for `N#Cc1cccc(C(=O)Nc2ccc(-c3nc4ccccc4[nH]3)cc2)c1` please.
Ans. 38%

Qu. Same question for `Cc1cc(N(C)C)nc(Nc2ccc(NC(=O)c3c(F)cccc3Cl)cc2)n1` please.
Ans. 36%

---
Qu. Item under review: `CS(=O)(=O)NCCCNCc1cccc(-c2csc(-c3nc4ccccc4[nH]3)c2)c1.O=C(O)C(F)(F)F` . Reported Inhibition?
Ans. 9%

Qu. Same question for COc1cc(F)c2nccc([C@@H](O)CN3CCC(NCc4ccc5c(n4)NC(=O)CS5)C(F)C3)c2c1.Cl (stereo not given in full) please.
Ans. 80%

Qu. Same question for `CS(=O)(=O)O.CSc1ccc2ccccc2c1CCNCCCCNCCc1c(SC)ccc2ccccc12` please.
Ans. 60%

Qu. Same question for `O=C(Nc1cc(C(F)(F)F)ccc1N1CCOCC1)C(Cl)(Cl)Cl` please.
Ans. 100%

Qu. Same question for Cc1nc(-c2cccc(Nc3nccc(NCC(O)c4ccccc4C)n3)c2)cs1 (stereo not given) please.
Ans. 14%

Qu. Same question for `O=S(=O)(Nc1cccc(CCN2CCC(N3CCCCC3)CC2)c1)c1cccc2ccccc12` please.
Ans. 63%

Qu. Same question for `COc1ccc2nccc([C@@H](O)CN3CCC(NC(=O)c4cccc(-c5cc(C)no5)c4)CC3)c2c1` please.
Ans. 89%

Qu. Same question for `CCOC(=O)c1ccc(NC(=O)Nc2ccc(-c3ccc(-c4nc5cc(C(F)(F)F)ccc5[nH]4)cc3)cc2)cc1` please.
Ans. 52%

Qu. Same question for `Br.CC1(C)N=C(N)N=C(N)N1OCCCOc1cccc(C(=O)O)c1` please.
Ans. 96%

Qu. Same question for `FC(F)(F)c1ccc2[nH]ccc(=NN=Cc3ccc(Cl)cc3)c2c1` please.
Ans. 53%

Qu. Same question for `Cc1noc(-c2ccc(N3CCC(C(=O)N4CCN(C(C)C)CC4)CC3)cc2)n1.Cl` please.
Ans. 0%

Qu. Same question for `Fc1ccc(CN2CCN(c3ncnc4cc(-c5ccccc5)sc34)CC2)cc1` please.
Ans. 82%

Qu. Same question for `CCc1nc2nc(C)cc(Nc3cc(C)cc(C)c3)n2n1` please.
Ans. 96%

Qu. Same question for `Cc1ccc2[nH]c(-c3ccccc3N)cc2c1` please.
Ans. 8%

Qu. Same question for `COc1cc(Br)c(S(=O)(=O)n2cc(CN3CCC(N)CC3)c3cc(Cl)ccc32)cc1OC.O=C(O)C(F)(F)F` please.
Ans. 32%
